- system_under_test: ZNF721 DBD2 (Homo sapiens, UniProt Q8TF20-2 395-923)
- Sequence (Q8TF20 383-911): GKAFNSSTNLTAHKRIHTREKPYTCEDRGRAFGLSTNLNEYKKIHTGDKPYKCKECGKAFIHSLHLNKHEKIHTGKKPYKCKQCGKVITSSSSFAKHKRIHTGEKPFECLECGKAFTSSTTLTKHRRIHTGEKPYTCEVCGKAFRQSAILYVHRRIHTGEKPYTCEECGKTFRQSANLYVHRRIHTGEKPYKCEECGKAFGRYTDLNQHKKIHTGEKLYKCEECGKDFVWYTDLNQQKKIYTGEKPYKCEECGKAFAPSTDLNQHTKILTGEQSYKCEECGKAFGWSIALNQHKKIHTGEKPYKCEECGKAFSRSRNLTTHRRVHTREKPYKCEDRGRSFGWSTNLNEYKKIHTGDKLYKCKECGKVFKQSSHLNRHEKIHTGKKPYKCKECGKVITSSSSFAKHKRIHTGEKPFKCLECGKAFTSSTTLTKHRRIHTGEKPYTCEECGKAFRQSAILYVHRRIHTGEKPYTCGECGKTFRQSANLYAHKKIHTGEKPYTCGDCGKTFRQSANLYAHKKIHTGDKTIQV
- experiment_notes: HT-SELEX; 20 mM HEPES pH 7, 140 mM KCl, 5 mM NaCl, 1 mM K2HPO4, 2 mM MgSO4, 100 uM EGTA, ZnSO4, 0.1% Tween20; room temperature, 1 h; high values mean tight binding
- test_settings: protein: ivt; tags: eGFP (N-terminal); dsDNA, one strand shown
We label by threshold. Values of binding signal strictly beneath 0.005 relative 10-mer count are yes. Values of 0.005 relative 10-mer count and up are no.

>>> assigned_category("AGGGAGGGGG")
"yes"

Threshold test, binding signal < 0.005 relative 10-mer count: ACCCACCTCC
no

----------
- system_under_test: ZNF721 full-length (Homo sapiens, UniProt Q8TF20-2 1-923)
- Sequence (Q8TF20 other isoform, or with tags, fused parts or gaps): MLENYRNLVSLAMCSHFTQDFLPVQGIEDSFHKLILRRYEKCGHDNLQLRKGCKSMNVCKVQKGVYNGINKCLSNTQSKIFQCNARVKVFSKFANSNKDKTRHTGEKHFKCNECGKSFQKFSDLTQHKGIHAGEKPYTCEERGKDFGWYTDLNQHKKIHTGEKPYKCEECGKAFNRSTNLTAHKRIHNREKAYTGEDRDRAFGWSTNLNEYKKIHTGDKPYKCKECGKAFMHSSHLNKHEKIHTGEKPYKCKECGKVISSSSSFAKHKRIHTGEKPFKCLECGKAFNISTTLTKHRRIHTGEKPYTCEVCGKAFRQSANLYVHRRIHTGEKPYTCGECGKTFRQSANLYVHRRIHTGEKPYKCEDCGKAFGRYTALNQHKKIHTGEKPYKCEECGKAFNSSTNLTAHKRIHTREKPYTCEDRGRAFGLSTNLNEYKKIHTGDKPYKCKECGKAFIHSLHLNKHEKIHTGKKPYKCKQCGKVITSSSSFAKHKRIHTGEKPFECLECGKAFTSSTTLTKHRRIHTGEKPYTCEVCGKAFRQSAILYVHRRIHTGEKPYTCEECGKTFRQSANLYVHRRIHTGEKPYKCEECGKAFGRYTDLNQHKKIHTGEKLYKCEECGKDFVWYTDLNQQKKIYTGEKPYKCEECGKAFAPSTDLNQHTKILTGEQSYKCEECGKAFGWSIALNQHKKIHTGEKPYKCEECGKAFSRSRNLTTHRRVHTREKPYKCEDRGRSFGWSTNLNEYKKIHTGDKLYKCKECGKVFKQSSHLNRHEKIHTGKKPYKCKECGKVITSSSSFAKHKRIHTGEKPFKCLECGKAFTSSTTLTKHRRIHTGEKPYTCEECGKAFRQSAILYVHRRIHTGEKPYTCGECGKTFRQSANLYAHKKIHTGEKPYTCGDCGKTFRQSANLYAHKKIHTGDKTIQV
- experiment_notes: HT-SELEX; 20 mM HEPES pH 7, 140 mM KCl, 5 mM NaCl, 1 mM K2HPO4, 2 mM MgSO4, 100 uM EGTA, ZnSO4, 0.1% Tween20; room temperature, 1 h; high values mean tight binding
- test_settings: protein: ivt; tags: eGFP (N-terminal); dsDNA, one strand shown
endpoint: binding signal (relative 10-mer count)
Could you give me the number in relative 10-mer count? Just the number is fine.

Reported binding signal, sequence AAACAGGATA : ____
0.111

Next entry: CCCCCTCCCA
0.157

Next entry: CCTCCTCCCC
0.169

Next entry: AAGCAGTGTC
0.13

Next entry: ACAAAACAGC
0.249

----------
- system_under_test: ZNF721 full-length (Homo sapiens, UniProt Q8TF20-2 1-923)
- experiment_notes: HT-SELEX; 20 mM HEPES pH 7, 140 mM KCl, 5 mM NaCl, 1 mM K2HPO4, 2 mM MgSO4, 100 uM EGTA, ZnSO4, 0.1% Tween20; room temperature, 1 h; high values mean tight binding
- test_settings: protein: ivt; tags: eGFP (N-terminal); dsDNA, one strand shown
Examples of sequences with documented binding signal follow.
Could you give me the number in relative 10-mer count? Just the number is fine.

Consider the following illustrative entries.
>>> result_value("AAACAGCACT")
0.14
>>> result_value("AACAGTGTAT")
0.129
>>> result_value("GCCCCACCAC")
0.137

Reported binding signal, sequence CCATCCCACC : ____
0.138

Next entry: CCCGCCCCCG
0.13

Next entry: GTATGAAGCA
0.171

Next entry: CCCGCCCCCC
0.264

Next entry: ACCCGCCCCC
0.153

Next entry: AAGCGTCTCC
0.163

Next entry: ACGAAAAAAA
0.107

Next entry: CACCCACCCG
0.132

Next entry: CAGGGTTTCC
0.162

Next entry: CCCCTCCACC
0.274

Next entry: CAGCGTTGCC
0.143

Next entry: CCCCCTCCAC
0.179

Next entry: CCCATCCCCC
0.185

Next entry: AACAGCATCC
0.117

Next entry: CACCCCCAAC
0.118

Next entry: GGTGGTGGGA
0.157

----------
- system_under_test: ZNF721 DBD2 (Homo sapiens, UniProt Q8TF20-2 395-923)
- experiment_notes: HT-SELEX; 20 mM HEPES pH 7, 140 mM KCl, 5 mM NaCl, 1 mM K2HPO4, 2 mM MgSO4, 100 uM EGTA, ZnSO4, 0.1% Tween20; room temperature, 1 h; high values mean tight binding
- test_settings: protein: ivt; tags: eGFP (N-terminal); dsDNA, one strand shown
endpoint: binding signal (relative 10-mer count)
Could you give me the number in relative 10-mer count? Just the number is fine.

Consider the following illustrative entries.
>>> result_value("CGCTGTTTTC")
0.356
>>> result_value("AAAAAAACAG")
0.753
>>> result_value("CCCAAACCCC")
0.00168
>>> result_value("AGAAAGAAGC")
0.00216

Reported binding signal, sequence CTCCCCCCTC : ____
0.00336

Next entry: AAAAGGCATA
0.116

Next entry: AAAAAAGGCA
0.13

Next entry: CAAAAAACAG
0.495

Next entry: CCCCCCCATC
0.00324
